Provide the recorded koff for the entries that follow.
target: uPAR (Homo sapiens); construct: Recombinant human uPAR^1–283 was expressed; made in house; host or cells: Drosophila melanogaster S2 cells; experiment: SPR real-time binding kinetics, peptides in solution and immobilised uPAR; settings: single cycle SPR, immobilised uPAR, 20 °C
Sequence (Q03405 23-305): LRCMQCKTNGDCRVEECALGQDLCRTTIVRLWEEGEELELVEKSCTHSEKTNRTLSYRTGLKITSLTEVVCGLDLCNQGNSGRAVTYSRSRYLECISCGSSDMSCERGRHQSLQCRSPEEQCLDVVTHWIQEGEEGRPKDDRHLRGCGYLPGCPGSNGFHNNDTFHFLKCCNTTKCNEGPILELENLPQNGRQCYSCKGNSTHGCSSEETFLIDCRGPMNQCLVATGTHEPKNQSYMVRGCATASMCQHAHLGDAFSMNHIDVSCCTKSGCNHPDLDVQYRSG
Positions of bridges follow the written chain, without caps; N, C: chain ends. Non-standard residues stand in square brackets, D forms with d. Residues, ends and D or L forms follow the SMILES beside them. *: point of attachment. DOTA = O=C(O)CN1CCN(CC(=O)O)CCN(CC(=O)*)CCN(CC(=O)O)CC1; Cha = N[C@@H](CC1CCCCC1)C(=O)O
Give bare numbers, in s⁻¹.

Some compounds with recorded koff:
[[record]]
compound = "CC(C)C[C@H](NC(=O)[C@H](Cc1ccc(O)cc1)NC(=O)[C@@H](CCCCN)NC(=O)[C@@H](CO)NC(=O)[C@H](Cc1ccccc1)NC(=O)[C@H](CC1CCCCC1)NC(=O)[C@@H](N)CC(=O)O)C(=O)N[C@@H](Cc1c[nH]c2ccccc12)C(=O)N[C@@H](CO)C(=O)O [compound 2] (H-D[Cha]F[dS][dK]YLWS-OH; N-terminus assumed)"
measurement_unit = "s⁻¹"
readout_number = 0.0298

[[record]]
compound = "CC(C)C[C@@H]1NC(=O)[C@H](Cc2ccc(O)cc2)NC(=O)[C@H](NC(=O)[C@@H](CO)NC(=O)[C@H](Cc2ccccc2)NC(=O)[C@H](CC2CCCCC2)NC(=O)[C@H](CC(=O)O)NC(=O)CNC(=O)CNC(=O)[C@@H](CO)NC(=O)CNC(=O)[C@H](CCC(=O)O)NC(=O)[C@H](CCC(=O)O)NC(=O)CN2CCN(CC(=O)O)CCN(CC(=O)O)CCN(CC(=O)O)CC2)CSSC[C@@H](C(=O)O)NC(=O)[C@H](Cc2c[nH]c3ccccc23)NC1=O [6b] ({DOTA}-EEG[dS]GGD[Cha]F[dS][dC]YLWC-OH; disulfide 11-15)"
measurement_unit = "s⁻¹"
readout_number = 0.00977


Here is the next item to consider.
For record CC(C)C[C@@H]1NC(=O)[C@H](Cc2ccc(O)cc2)NC(=O)[C@H](NC(=O)[C@@H](CO)NC(=O)[C@H](Cc2ccccc2)NC(=O)[C@H](CC2CCCCC2)NC(=O)[C@H](CC(=O)O)NC(=O)CN2CCN(CC(=O)O)CCN(CC(=O)O)CCN(CC(=O)O)CC2)CSSC[C@@H](C(=O)O)NC(=O)[C@H](Cc2c[nH]c3ccccc23)NC1=O [3b] ({DOTA}-D[Cha]F[dS][dC]YLWC-OH; disulfide 5-9) the listed koff is 0.0044

* * *

target: uPAR (Homo sapiens); construct: Recombinant human uPAR^1–283 was expressed; made in house; host or cells: Drosophila melanogaster S2 cells; test: SPR real-time binding kinetics, peptides in solution and immobilised uPAR; conditions: single cycle SPR, immobilised uPAR, 20 °C, 1:1 model
pKd: −log10 of the molar value. Positions of bridges follow the written chain, without caps; N, C: chain ends. Non-standard residues stand in square brackets, D forms with d. Residues, ends and D or L forms follow the SMILES beside them. *: point of attachment. DOTA = O=C(O)CN1CCN(CC(=O)O)CCN(CC(=O)*)CCN(CC(=O)O)CC1; Cha = N[C@@H](CC1CCCCC1)C(=O)O
pKd of 8 or higher: 1 (yes). Under 8: 0 (no).

Sample answers from the record:
[[record]]
molecule = "CC(C)C[C@@H]1NC(=O)[C@H](Cc2ccc(O)cc2)NC(=O)[C@H](NC(=O)[C@@H](CO)NC(=O)[C@H](Cc2ccccc2)NC(=O)[C@H](CC2CCCCC2)NC(=O)[C@@H](N)CC(=O)O)CSSC[C@@H](C(N)=O)NC(=O)[C@H](Cc2c[nH]c3ccccc23)NC1=O [compound 9] (H-D[Cha]F[dS][dC]YLWC-NH2; disulfide 5-9; N-terminus assumed)"
class_name = "1 (yes)"

[[record]]
molecule = "CC(C)C[C@H](NC(=O)[C@H](Cc1ccc(O)cc1)NC(=O)[C@@H](CCCNC(=N)N)NC(=O)[C@@H](CO)NC(=O)[C@H](Cc1ccccc1)NC(=O)[C@H](CC1CCCCC1)NC(=O)[C@H](CC(=O)O)NC(=O)CNC(=O)CNC(=O)[C@@H](CO)NC(=O)CNC(=O)[C@H](CCC(=O)O)NC(=O)[C@H](CCC(=O)O)NC(=O)CN1CCN(CC(=O)O)CCN(CC(=O)O)CCN(CC(=O)O)CC1)C(=O)N[C@@H](Cc1c[nH]c2ccccc12)C(=O)N[C@@H](CO)C(=O)O [4b] ({DOTA}-EEG[dS]GGD[Cha]F[dS][dR]YLWS-OH)"
class_name = "0 (no)"

[[record]]
molecule = "CC(C)C[C@H](NC(=O)[C@H](Cc1ccc(O)cc1)NC(=O)[C@@H](CCCNC(=N)N)NC(=O)[C@@H](CO)NC(=O)[C@H](Cc1ccccc1)NC(=O)[C@H](CC1CCCCC1)NC(=O)[C@H](CC(=O)O)NC(=O)CN1CCN(CC(=O)O)CCN(CC(=O)O)CCN(CC(=O)O)CC1)C(=O)N[C@@H](Cc1c[nH]c2ccccc12)C(=O)N[C@@H](CO)C(N)=O"
class_name = "1 (yes)"

[[record]]
molecule = "CC(C)C[C@@H]1NC(=O)[C@H](Cc2ccc(O)cc2)NC(=O)[C@H](NC(=O)[C@@H](CO)NC(=O)[C@H](Cc2ccccc2)NC(=O)[C@H](CC2CCCCC2)NC(=O)[C@H](CC(=O)O)NC(=O)CNC(=O)CNC(=O)[C@@H](CO)NC(=O)CNC(=O)[C@H](CCC(=O)O)NC(=O)[C@H](CCC(=O)O)NC(=O)CN2CCN(CC(=O)O)CCN(CC(=O)O)CCN(CC(=O)O)CC2)CSSC[C@@H](C(=O)O)NC(=O)[C@H](Cc2c[nH]c3ccccc23)NC1=O [6b] ({DOTA}-EEG[dS]GGD[Cha]F[dS][dC]YLWC-OH; disulfide 11-15)"
class_name = "0 (no)"


(Q) Does the reported pKd for CC(C)C[C@H](NC(=O)[C@H](Cc1ccc(O)cc1)NC(=O)[C@@H](CCCNC(=N)N)NC(=O)[C@@H](CO)NC(=O)[C@H](Cc1ccccc1)NC(=O)[C@H](CC1CCCCC1)NC(=O)[C@H](CC(=O)O)NC(=O)CN1CCN(CC(=O)O)CCN(CC(=O)O)CCN(CC(=O)O)CC1)C(=O)N[C@@H](Cc1c[nH]c2ccccc12)C(=O)N[C@@H](CO)C(=O)O fall at or above the 8 mark?
(A) 0 (no)

All values here come from paper PMC10567728.
